FYI, the data here is from patent US10517889B2.

system: human SMAD7 mRNA; experiment: Dose-dependent inhibition of human SMAD7 mRNA expression in Hep3B cells (Example 3, Study 1 and 2); assay type: cell-based; details: electroporation, Study 2 (740-20000 nM)
Strand notation (5' to 3'): a small letter for the sugar, then the base; units joined by * are phosphorothioate-linked, units joined directly phosphodiester-linked; [ ] holds rarer units or linkages, { } end groups; capitals alone tell only the bases. k = constrained ethyl (cEt); [5mC] = 5-methylcytosine; d = 2'-deoxy (DNA)
Quick list: pIC50 per entry.
# reply with the number alone; pIC50 is -log10 of concentration in mol/L

The recorded pIC50 for entry 799755 (antisense kG*kA*kA*dA*dG*dT*dT*dA*d[5mC]*dA*dG*dA*dA*k[5mC]*kT*k[5mC]) [compound 799755] equals 5.22

Documented pIC50 of 799904 (antisense kA*k[5mC]*kT*d[5mC]*dA*dG*dA*dG*d[5mC]*dA*dG*d[5mC]*dT*k[5mC]*kT*k[5mC]) [compound 799904] : 5.10

Recorded result, 790614 (kG*kA*kG*dA*dA*dT*dG*d[5mC]*dT*dT*d[5mC]*dT*d[5mC]*kT*kT*kG; antisense) [compound 790614] , pIC50: 4.96

pIC50 for 829776 (antisense kG*k[5mC]*kG*dA*dG*dT*dA*dG*dG*dA*d[5mC]*dG*dA*kG*kG*kG) [compound 829776] is 5.30
